The values you see were collected from the pKa sets of Baltruschat and Czodrowski (2020).

Run Parameters: basic group
Answer each item with its documented pKa.
Answer as a number with no unit attached.

Inquiry: Tell me the measured pKa of CCCSCCN(CC)CC , please.
Reply text: 8.83

Inquiry: Param item: OC[C@@H]1CCN2CC[C@H](O)[C@H]12
Reply text: 10.2

Inquiry: Param item: O=C([O-])C(CO)NCc1cc([N+](=O)[O-])ccc1[O-] (stereo unspecified)
Reply text: 9.75

Inquiry: Param item: Cc1cc[nH+]c([O-])n1
Reply text: 3.15

Inquiry: Param item: FC(F)(F)c1nc2ncncc2[nH]1
Reply text: 1

Inquiry: Param item: c1ccc(C2=NCCN2)nc1
Reply text: 8.98

Inquiry: Param item: c1cncc(C2=NCCC2)c1
Reply text: 8.77

Inquiry: Param item: c1coc(C2CN3CCC2CC3)c1 (stereo unspecified)
Reply text: 10

Inquiry: Param item: CC(C)CCCN(C)CCCNC(=O)/C=N/[O-]
Reply text: 10.2

Inquiry: Param item: O=Cc1ccncc1O
Reply text: 4.05

Inquiry: Param item: C[NH+](C)c1ccc(N)cc1
Reply text: 3.73

Inquiry: Param item: Cn1cc(Cl)cn1
Reply text: 0.16

Inquiry: Param item: Nc1ccc2cc3ccccc3nc2c1
Reply text: 8.04

Inquiry: Param item: Nc1ccc(C(=O)c2ccc([NH3+])cc2)cc1
Reply text: 1.37

Inquiry: Param item: C=CC(C)(C)Nc1ccccc1
Reply text: 4.88

Inquiry: Param item: CCCCNCc1ccccc1
Reply text: 9.46
